# TARGET OF ASSAY: Monoamine Oxidase A (Rattus norvegicus)
# Construct: serves as the tissue source for mitochondrial monoamine oxidase
# Sequence (P21396 whole entry): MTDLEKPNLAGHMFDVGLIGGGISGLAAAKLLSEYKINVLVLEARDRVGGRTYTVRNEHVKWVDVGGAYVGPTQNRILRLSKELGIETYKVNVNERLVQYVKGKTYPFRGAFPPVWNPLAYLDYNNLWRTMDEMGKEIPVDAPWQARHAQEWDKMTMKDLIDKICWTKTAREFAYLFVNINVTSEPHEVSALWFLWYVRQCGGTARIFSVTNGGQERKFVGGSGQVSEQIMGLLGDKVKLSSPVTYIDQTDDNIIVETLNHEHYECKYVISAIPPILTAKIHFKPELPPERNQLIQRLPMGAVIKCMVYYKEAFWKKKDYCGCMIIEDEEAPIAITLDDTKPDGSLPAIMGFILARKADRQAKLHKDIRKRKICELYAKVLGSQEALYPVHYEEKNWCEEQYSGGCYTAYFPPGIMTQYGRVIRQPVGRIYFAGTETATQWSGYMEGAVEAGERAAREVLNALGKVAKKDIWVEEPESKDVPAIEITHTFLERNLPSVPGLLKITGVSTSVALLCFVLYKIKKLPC
# RUN DESCRIPTION: in vitro inhibition of monoamine oxidase assay, monoamine oxidase-A
# CONDITION NOTES: rat brain mitochondrial monoamine oxidase; substrate [3H]-5-hydroxytryptamine 200 μM; 30 minutes at 37° C.
Counter-ions that a name gives are not always drawn.
OUTCOME MEASURE: IC50 (µM)
Answer format: numeric, µM implied, no suffix.

Record excerpt, results attached:
COc1ccc(NN=C2CCCC23CCNCC3)cc1 [hydrochloride] ... 37.2
COc1ccc(CN2CCC3(CCc4c3n(C)c3ccccc43)CC2)cc1 ... 98.6

[in] Enter reported IC50 observed with Monoamine Oxidase A (Rattus norvegicus) for COc1cccc(CN2CCC3(CCc4c3n(C)c3ccccc43)CC2)c1
[out] 51.2

// provenance: patent US6479501B2
